- target_under_test: human CCR6 (Homo sapiens)
- Sequence (P51684 whole entry): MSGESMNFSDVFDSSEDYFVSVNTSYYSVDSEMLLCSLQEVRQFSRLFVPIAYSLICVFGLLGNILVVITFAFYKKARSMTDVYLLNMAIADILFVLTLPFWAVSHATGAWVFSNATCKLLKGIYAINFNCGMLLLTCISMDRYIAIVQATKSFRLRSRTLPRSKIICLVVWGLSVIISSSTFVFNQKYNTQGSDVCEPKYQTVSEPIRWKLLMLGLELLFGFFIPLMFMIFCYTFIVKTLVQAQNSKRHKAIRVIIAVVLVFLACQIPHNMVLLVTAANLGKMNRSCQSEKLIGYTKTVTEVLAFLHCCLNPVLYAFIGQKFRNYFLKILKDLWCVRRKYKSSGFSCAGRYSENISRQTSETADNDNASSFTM
- test_name: Migration assay (chemotaxis, ChemoTX)
- stated_conditions: hCCR6-transfected Ba/F3 cells in human serum, migration to recombinant human CCL20 10 nM, 37° C. 45 minutes; read-out: Potency (IC50 value in the migration assay)
pIC50: −log10 of the molar value.
measured_endpoint: pIC50

Example entries begin here.
[
  {
    "mol": "COc1c(-c2ccc(S(=O)(=O)N3CC[C@@H](Nc4ccc(C(F)(F)F)cn4)[C@@H](O)C3)cc2)cnc2[nH]cc(C#N)c12",
    "pIC50": "> 9.00"
  },
  {
    "mol": "O=S(=O)(c1ccc(-c2ccnc(-c3ncc[nH]3)c2)cc1)N1CC[C@@H](Nc2ccc(C(F)(F)F)cn2)[C@@H](O)C1",
    "pIC50": "> 9.00"
  }
]

# next compound below
Notebook: O=C1C[C@@H](Nc2ccc(-c3ccc(S(=O)(=O)N4CC[C@@H](Nc5ccc(C(F)(F)F)cn5)[C@@H](O)C4)cc3)cn2)CN1 , pIC50 read as > 9.00
